Kindly state TGI for each of the entries shown.
tested on: SN12C renal; experiment: NCI tumour cell line growth inhibition, 48 h

Task: Entry under review: "O=C(c1ccc(Cl)cc1Cl)N(C(=O)N1CCC(c2ccccc2)CC1)c1ccccc1" . Reported TGI?
Output: > 100 µM

Task: Requested field: TGI. Item: "Nc1nc(/C=C\c2ccc([N+](=O)[O-])o2)nc(N2CCN(c3ccccc3)CC2)n1"
Output: 43.9 µM

Task: So what does the record say about TGI for "O=C1c2cc3c(cc2CC12Cc1cc4c(cc1C2=O)CCCC4)CCCC3" ?
Output: > 100 µM

Task: What value of measured TGI is listed for "O=c1c2cc(S(=O)(=O)Nc3ccccc3Cl)ccc2ncn1NS(=O)(=O)c1ccc(Br)cc1" ?
Output: > 37.5 µM

Task: Please report the recorded TGI for "CCc1nnc(CC)n1NCCCC(=O)O" .
Output: > 100 µM

Task: What value of TGI has been reported for the following compound? "Nc1ncnc2sc(=S)c3c(c12)CCC3"
Output: > 100 µM

---

tested on: LOX IMVI melanoma; test: NCI tumour cell line growth inhibition, 48 h; in the data active means GI50 below about 0.43 µM; inactive means the rest
Bench note: report the call from active, inactive

Task: Which outcome was entered for the compound "CCOC(=O)c1c2c(n(CC(C)C)c1C)-c1nc[nH]c1C(=O)C2=O" in this test?
Output: inactive

Task: Call for entry Cc1ccc2[nH]c(C(=O)NN3C(=O)CSC34CCCCC4C)c(-c3ccccc3)c2c1 (configuration not stated) :
Output: inactive

Task: What is the recorded call for this compound in the test? "COc1cccc(C2=C(c3cn(C)c4ccccc34)C(=O)NC2=O)c1"
Output: inactive

Task: Please indicate how the test categorized "C=C(C)[C@@H]1CC=C(CO)CC1" .
Output: inactive

Task: Per the assay record, what outcome was assigned to "c1ccc2[nH]c(-c3ccc(N4CCN(c5ccc(-c6nc7ccccc7[nH]6)cc5)CC4)cc3)nc2c1" ?
Output: inactive

Task: Could you check what this test reported for "CN(C)CCNC(=O)c1cccn2c(=O)c3cc4ccccc4cc3nc12" ?
Output: active

Task: Record lookup: outcome of this test for "N#CC(C#N)=CN1CCN(C(=O)c2ccco2)C1=S" ?
Output: inactive

Task: // return assay outcome for "O=c1cc(CNc2cc(F)cc(F)c2)c2ccc(I)cc2[nH]1"
Output: inactive

Task: For "COc1ccc(C(=O)/C=C/c2ccc(Cl)cc2)cc1S(=O)(=O)Nc1c(N)nc(SC)[nH]c1=O" , which call appears in the assay record?
Output: inactive

Task: So what was the verdict on "COc1ccc(Cn2nc(-c3cc(OC)c(OC)c(OC)c3)c3c2CCc2cnoc2-3)cc1OC" in this test?
Output: inactive

Task: Test call for this compound, please: "N#CSc1ncnc2nc[nH]c12"
Output: inactive

Task: # fetch the recorded call for "CCCN(Cc1ccc(F)cc1)c1ccc(CO)c(Cl)c1" here
Output: inactive

Task: Outcome logged for CCCN1C(=O)/C(=c2\sc3n(c2=O)C2C(NN=3)N(CC)C(=O)N2CC)c2ccccc21 (configuration not stated) in this assay:
Output: inactive

Task: # lookup: test call for "Fc1ccc2[nH]cc(Cc3c[nH]c4ccc(F)cc34)c2c1"
Output: inactive

Task: State the result this test recorded for "CCN(CC)c1ccc(/C=C/c2cc(C)c3ccccc3n2)cc1" .
Output: inactive

Task: Each compound tested received a call. Report the one for "Fc1ccc(-c2nc3n(c2-c2ccncc2)CCS3)cc1" .
Output: inactive

Task: Per the assay record, what outcome was assigned to "N#Cc1ncc(/N=C/c2ccc(N(CCCl)CCCl)cc2)s1" ?
Output: inactive

Recorded values, source PubChem BioAssay (NCI).
